assay: protein stability index of a GFP-peptide fusion (GPS, HEK-293T) (PSI 1-6); higher = more stable; settings: treatment: MLN4924 1 uM, 8 h; c terminus: a fixed tail appended;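 further: 24-mer peptide tiles fused after GFP, lentivirally expressed, FACS-sorted into six equal bins by GFP/DsRed ratio, decoded by Illumina sequencing, PSI is the read-weighted mean bin number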
Record TRUE whenever protein stability index is at 3 or higher; record FALSE when lower.

chain_sequence="GSLGFEPVYVSCIAQDTCTTTDHS [SPAG8]" class=TRUE
chain_sequence="FEGDMGAAGGDGELGSPLRRSISS [PSD2]" class=TRUE
chain_sequence="RTIVKGYNENVYTEDGKLDIWSKS [MED27]" class=TRUE

Record LPQEDPSTSQGCAQPQGAPCCSSS [FEM1A] ; criterion: protein stability index no lower than 3. Met?
TRUE

---

assay: protein stability index of a GFP-peptide fusion (GPS, HEK-293T) (PSI 1-6); higher = more stable; details: treatment: DMSO; c terminus: a fixed tail appended
READOUT KIND: protein stability index
Give a plain numeric answer without units written out.

Study these solved cases before continuing.
chain_sequence="RTIVKGYNENVYTEDGKLDIWSKS [MED27]" value_observed=3.84
chain_sequence="LTWSELFVLNAAQCSMPLHVAPLL [NR2F2]" value_observed=2.98
chain_sequence="CLGLSYDGLLGDNQIMPKTGFLII [MAGEA6]" value_observed=3.01
chain_sequence="SWEPLSGPSTPSPVAAQFTSEGTT [FCHO1]" value_observed=4.61
chain_sequence="YFTNRKVNSVCWASLNHLDSHILL [DCAF4]" value_observed=2.82
chain_sequence="CLLVLRLFLGIHVFLVSCALPDSV [AUP1]" value_observed=3.22
chain_sequence="HLRIHTGEKPYKCTHCSKSFRQRA [ZNF449]" value_observed=2.83
chain_sequence="SSCCLHICQGIRGLWGTTLTENTA [PKD2L1]" value_observed=2.07

I have this sequence here, VVGDNAVGKTRLICARACNTTLTQ [RHOBTB1] , and I need its recorded protein stability index.
2.69

Then this sequence: ISSTTCGRQLEKVPEKRDSGMTEV [SPATS1]
4.27

Then this sequence: TLQDLVFDECGITDDQLLALLPSL [PRAME]
2.84

Then this sequence: PMQKLQDLVNRTPWKKCCFSGDGE [RBBP5]
2.84

Then this sequence: LEVINLLRKHRELCDVVLVVGAKK [KLHL20]
2.37

---

test: protein stability index of a GFP-peptide fusion (GPS, HEK-293T) (PSI 1-6); higher = more stable; conditions: treatment: DMSO; c terminus: a fixed tail appended
Record met whenever protein stability index is at 3 or higher; record not met when lower.

Worked examples, 3 sequences total:
chain_sequence="SSGQCRRRKRTYWNDSCGEDMEAS [WEE1]" class=met
chain_sequence="NLIEKSASLDNGGCALTTFSVLEG [SOAT1]" class=met
chain_sequence="LDADAAQRVVYLEGCGPPLRRWLR [TSPAN10]" class="not met"

Record SLAAFSVISVVSYLILALLSVTIS [RTN3] ; criterion: protein stability index no lower than 3. Met?
met

Then this sequence: EKASWLGEQPQFWSKTQVLDWISY [ELF3]
not met

Then this sequence: DSDIPEIPPSSDRTPEILKKALSG [CDS1]
met

Then this sequence: LFSELAEDKENYKKFYEAFSKNLK [HSP90AB1]
not met

Then this sequence: TNVKFLAITTDCLQILAYGNQESK [CTNNB1]
not met

Then this sequence: IAKYSDGASKAAGVFGFFATIVFA [CMTM3]
not met

Then this sequence: RAPPKRKRKRVKQRINTYVFVGNQ [PCMTD1]
met

Then this sequence: RELGPEELDELQAAFEEFDTDRDG [CABP4]
met

Then this sequence: SQELPPPDPGPSPEASHLRFRRFR [ZNF263]
met
